biological target: T1, rat serum albumin (rat, UniProt P02770 25-608); assay: peptide competition for albumin
T1 construct: also called Rat SA; RSA
T1 sequence (P02770 25-608 limits assumed): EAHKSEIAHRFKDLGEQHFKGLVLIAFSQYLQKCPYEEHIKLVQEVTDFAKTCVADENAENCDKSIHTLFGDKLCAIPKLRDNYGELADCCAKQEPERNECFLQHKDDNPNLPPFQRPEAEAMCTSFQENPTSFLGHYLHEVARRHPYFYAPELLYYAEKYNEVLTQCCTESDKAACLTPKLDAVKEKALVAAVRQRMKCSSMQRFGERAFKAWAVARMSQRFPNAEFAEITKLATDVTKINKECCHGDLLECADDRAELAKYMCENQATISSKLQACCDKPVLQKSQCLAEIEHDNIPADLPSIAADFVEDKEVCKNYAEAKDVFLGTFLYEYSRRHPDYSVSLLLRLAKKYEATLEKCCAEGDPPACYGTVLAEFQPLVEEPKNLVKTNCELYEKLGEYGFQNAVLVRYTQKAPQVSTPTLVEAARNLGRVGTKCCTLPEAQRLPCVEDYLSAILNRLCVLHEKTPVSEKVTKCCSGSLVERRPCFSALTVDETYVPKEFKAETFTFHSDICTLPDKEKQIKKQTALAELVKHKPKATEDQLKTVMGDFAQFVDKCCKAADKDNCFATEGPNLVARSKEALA
Positions of bridges follow the written chain, without caps; N, C: chain ends. No end group written: not given here.
Reported pIC50 values for a set of binders
Scale: pIC50 equals -log10([C]), with [C] in mol/L.

Known pIC50 results, listed for orientation:
# Binder, pIC50
measured = [
    ("Ac-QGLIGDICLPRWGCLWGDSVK-NH2 (cysteine pairing not given here, free peptide) [SA08]", 7.17),
    ("MEDICLPRWGCLWED-NH2 (not fully specified (bridges); cysteine pairing not given here, free peptide) [SA05]", 6.79),
    ("Ac-RLMEDICLPRWGCLWEDD-NH2 (cysteine pairing not given here, free peptide) [SA10]", 7.11),
]

Here is the next item to consider.
State the recorded pIC50 for this entry: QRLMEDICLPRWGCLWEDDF-NH2 (disulfide 8-14 (inferred)) [SA06]
7.17
